// provenance: ChEMBL document CHEMBL1201862

Tested on: SF-295
Assay: NCI tumour cell line growth inhibition, 48 h
Calls of active or inactive are those of the source. Cut-off read from the data, not from the text of the source: active = GI50 up to about 1.1 µM and inactive = higher.
observed.property: GI50

Challenge: Entry CCOC(=O)C(=O)Nc1c(F)cc(F)cc1Br has what GI50?
Response given: > 100 µM (inactive)

Challenge: Entry C/C(=C\CO)CC/C=C(\C)CNc1ccccc1 : reported GI50 = ?
Response given: 38.5 µM (inactive)

Challenge: Consider the compound shown here: Nc1ccc(Cc2ccc(/N=C\c3ccc(OCc4cccc(COc5ccc(/C=N\c6ccc(Cc7ccc(N)cc7)cc6)cc5)n4)cc3)cc2)cc1 What is its recorded GI50?
Response given: 50.1 µM (inactive)

Challenge: Which GI50 is listed for Cc1c(CC/C(=N\Nc2ccc([N+](=O)[O-])cc2[N+](=O)[O-])c2ccccc2)c2ccccc2n1C ?
Response given: > 100 µM (inactive)

Challenge: Recorded GI50 for Cc1ccc2c(c1)[nH]c(=S)n2C=C(C(N)=O)C(N)=O , please?
Response given: > 100 µM (inactive)

* * *

Record form. Attribute: GI50. Fill in for each entry.
Test system: NCI-H522
Test: NCI tumour cell line growth inhibition, 48 h
Activity calls are given as the source filed them. Rule as the data show it: active = GI50 up to about 1.1 µM and inactive = higher.

Challenge: Could you tell me which GI50 is on file for O=c1[nH]c(=O)n(C2CC(O)C(CO)O2)cc1OCC1CCCCC1 (centres undefined) ?
Response given: > 100 µM (inactive)

Challenge: Item under review: N#CCc1n[nH]c2nc(SCc3ccccc3)nc(N3CCCCC3)c12 . Reported GI50?
Response given: 19.3 µM (inactive)

Challenge: Name the reported GI50 value associated with the compound C[Si](C)(C)/C=C/CN1C(=O)CCC1=O
Response given: > 100 µM (inactive)

Challenge: GI50 for COC(=O)C1CCC(=O)N1C(c1cc(OC)c(OC)c(OC)c1)c1cccc2ccccc12 (centres undefined) ?
Response given: 51.5 µM (inactive)

Challenge: For CC(=O)OCC1OC(OC2CC3C(C)(C)C(OC(C)=O)CC[C@]3(C)C3CCC45CC4(CC[C@H]5C(C)CC(O)C4OC4(C)C)[C@]23C)C(O)C(O)C1O (some centres undefined) , what is its reported GI50?
Response given: 1.59 µM (inactive)

Challenge: Returns the measured GI50 for the input compound. Input: CCOC(=O)c1sc2nc(SC)nc3c2c1NCN3c1ccc2c(c1)OCCCO2
Response given: > 100 µM (inactive)

Challenge: # get_value(readout='GI50', item= COc1cccc(-n2c(N)c(-c3nc4cc(C(F)(F)F)ccc4s3)c3ccc([N+](=O)[O-])cc3c2=O)c1 )
Response given: > 100 µM (inactive)

Challenge: Dear colleague, I am looking for the recorded GI50 of the following compound: Nc1nc(-c2ccccc2)cc(-c2ccc(OCc3ccccc3)cc2O)n1
Response given: 20.5 µM (inactive)

Challenge: Looking for the measured GI50 of CCc1cccc(C(C)CC)c1NC(=O)C(=O)C(CC(=O)Nc1ccc(Cl)c(Cl)c1)C(=O)OC (centres undefined) , can you help?
Response given: 38.5 µM (inactive)

* * *

Test system: NCI-H23
Assay: NCI tumour cell line growth inhibition, 48 h
Calls of active or inactive are those of the source. Rule as the data show it: active = GI50 up to about 1.1 µM and inactive = higher.
observed.property: GI50

Challenge: Report GI50 for CCCCCNC1=CC(=O)c2ccccc2C1=O please.
Response given: 24.3 µM (inactive)

Challenge: For CSc1[nH]nc(N)c1C(=O)Nc1ccc(C)cc1 , what is its reported GI50?
Response given: 61.1 µM (inactive)

Challenge: Name the recorded GI50 for CN(C)C(=S)/N=c1\ssc(=S)n1C .
Response given: > 100 µM (inactive)

Challenge: I have this compound here, CCOC(=O)[C@@H](NC(=O)OC(C)(C)C)[C@@H](O)C(=O)OCC , and I need its recorded GI50.
Response given: > 100 µM (inactive)

Challenge: Reported GI50 for COc1ccc(/N=C2\C(=N/c3ccc(OC)cc3)N(c3ccccc3[N+](=O)[O-])C(=S)N2c2ccc(OC)cc2)cc1 : what is it?
Response given: > 100 µM (inactive)

Challenge: What measured GI50 goes with Cn1c(=O)sc2cc(C(=S)N3CCCCC3)ccc21 ?
Response given: > 100 µM (inactive)

Challenge: Consider the compound shown here: N#CC(C(=N/NC(N)=S)/C(=N\NC(N)=S)C(C#N)c1ccccc1)c1ccccc1 (stereo unspecified) What is its recorded GI50?
Response given: > 10 µM (inactive)

Challenge: Entry under review: CC(=O)Nc1ccc(C2[C@H]3C(=O)N(c4ccc(Cc5ccc(N6C(=O)[C@@H]7ON(c8ccccc8)C(c8ccc(NC(C)=O)cc8)[C@@H]7C6=O)cc5)cc4)C(=O)[C@H]3ON2c2ccccc2)cc1 (stereo partly specified) . Reported GI50?
Response given: > 100 µM (inactive)

Challenge: Reported GI50, compound COc1ccc(/C=C2\CCCCC2=O)cc1 : ____
Response given: > 100 µM (inactive)

Challenge: Return reported GI50; argument: CCC(C)C(Nc1c2ccccc2nc2c(C(=O)NCCN(C)C)cccc12)C(=O)O (stereo unspecified)
Response given: 20.2 µM (inactive)

Challenge: Find the recorded GI50 belonging to O=C(Nc1ccc(Cl)cc1)NS(=O)(=O)c1coc2ccccc2c1=O and report it.
Response given: > 10 µM (inactive)

Challenge: Need GI50 of O=C(c1ccccc1Br)C(F)(F)F , thanks.
Response given: > 100 µM (inactive)

Challenge: Recorded GI50 for O=C1c2ccccc2N2OC3(N4CCCC4)CCCCC3C12c1ccccc1 (stereo unspecified) , please?
Response given: 20.1 µM (inactive)

Challenge: Which GI50 is listed for Oc1ccc2c(c1)CC[N+]1=C2CCC2CCCC21 (stereo unspecified) [QUINDONIUM BROMIDE] ?
Response given: > 100 µM (inactive)

Challenge: What does the data say about its GI50? Entry: C/C(=N\NC(=S)N1CCCCCC1)c1nccnc1C
Response given: < 0.01 µM (active)

Challenge: Name the reported GI50 value associated with the compound COC(=O)c1scc(N)c1-n1ccc(=O)[nH]c1=O
Response given: > 100 µM (inactive)

Challenge: Item CCOc1ccc(N2C(=O)C3c4[nH]c5ccccc5c4C4CCC(C(C)(C)C)CC4C3C2=O)cc1 (stereo unspecified) has what recorded GI50?
Response given: 82.8 µM (inactive)

Challenge: Would you mind telling me what GI50 value was observed for N=C(N)NS(=O)(=O)c1ccc(NC(=O)c2cccc3c(Nc4ccc(S(=O)(=O)N=C(N)N)cc4)c4ccc(Cl)cc4nc23)cc1 ?
Response given: > 100 µM (inactive)

Challenge: # query: GI50 of entry O=C1C[C@@H]2C(COC(=O)c3ccccc3)N(OCc3ccccc3)C[C@@H]2O1 (stereo partly specified)
Response given: > 100 µM (inactive)

Challenge: Need GI50 of Cc1cnc(/N=c2\sc(C)cn2-c2ncc(C)s2)s1 , thanks.
Response given: > 100 µM (inactive)

Challenge: What value of GI50 has been recorded for this entry: CN1C(=O)c2cccc3cc([N+](=O)[O-])cc(c23)C1=O
Response given: 9.08 µM (inactive)

* * *

Test system: LOX IMVI
Test: NCI tumour cell line growth inhibition, 48 h
Active and inactive are the calls of the source. Rule as the data show it: active = GI50 up to about 1.1 µM and inactive = higher.
Give GI50 for every item shown.

Challenge: Recorded GI50 for CCOS(=O)(=O)c1ccc(-c2c3nc(c(-c4ccc(S(=O)(=O)OCC)cc4)c4ccc([nH]4)c(-c4ccc(S(=O)(=O)OCC)cc4)c4nc(c(-c5ccc(S(=O)(=O)OCC)cc5)c5ccc2[nH]5)C=C4)C=C3)cc1 , please?
Response given: > 10 µM (inactive)

Challenge: Requested field: GI50. Item: C=C1C(=O)O[C@H]2[C@H]3O[C@@H](C[C@@H]12)[C@](C)(O)CC[C@@H]1O[C@@]1(C)CCC[C@H]3C
Response given: 16 µM (inactive)

Challenge: Fill in the blank: the reported GI50 of COc1ccccc1-c1cc(O)c2cccnc2n1 is ____.
Response given: 33 µM (inactive)

Challenge: So what's the measured GI50 for this one? CN(C)CCNC(=O)c1cccc2ccc(-c3ccc(F)cc3)nc12
Response given: 3.32 µM (inactive)

Challenge: Sample O=C(NC1CCCCC1)NS(=O)(=O)c1ccc2c(c1)CCC2 [GLYHEXAMIDE] — what was its GI50?
Response given: > 100 µM (inactive)

* * *

System: COLO 205
Test: NCI tumour cell line growth inhibition, 48 h
The source made the active and inactive calls. No stated cut-off is given here; in the data, active = GI50 up to about 1.1 µM and inactive = higher.
observed.property: GI50

Challenge: What does the data say about its GI50? Entry: Cn1c(=O)nc2n(CCO)c(-c3ccccc3)c(-c3ccccc3)nc-2c1=O
Response given: > 100 µM (inactive)

Challenge: So what's the measured GI50 for this one? COc1ccc(Cc2nc3cc(C(F)(F)F)ccc3n2C[C@@H]2CCCN3CCCCC23)cc1 (some centres undefined)
Response given: 5.36 µM (inactive)

Challenge: Given the compound O=c1oc2ccc3ccccc3c2cc1-c1cn2ccsc2n1 , what is its reported GI50?
Response given: 16.1 µM (inactive)

Challenge: Which GI50 reading was recorded for the compound O=C1C(Br)=CC2(C=C1Br)CCNC1=C2C(=O)c2ccccc2C1=O ?
Response given: 4.61 µM (inactive)

Challenge: Report GI50 for Cc1ccc(Nc2nc(-c3ccc(-c4ccc([N+](=O)[O-])cc4)o3)cs2)cc1 please.
Response given: 40 µM (inactive)

Challenge: # get_value(readout='GI50', item= CC[C@H](C)[C@H](NC(=O)N(CCC#N)CCN(CCN(C(=O)N[C@@H](Cc1ccccc1)C(=O)OC)c1ccccc1)C(=O)N[C@H](C(=O)OC)C(C)C)C(=O)OC )
Response given: 24.2 µM (inactive)

Challenge: Quick one: GI50 for COc1ccc(CCCCl)c(C2=NCCc3cc(OC)c(OC)cc32)c1 ?
Response given: 25.7 µM (inactive)

Challenge: Which GI50 value is on record for COc1ccccc1-c1cc(=O)c2ccccc2[nH]1 ?
Response given: > 100 µM (inactive)

Challenge: Consider the compound shown here: O=C(N/N=C\C=C\c1ccc([N+](=O)[O-])o1)C(=O)N/N=C\C=C\c1ccc([N+](=O)[O-])o1 What is its recorded GI50?
Response given: > 100 µM (inactive)
